Molecular target: RORγ (Homo sapiens)
Construct: expressed in transfected cells; host or cells: 293FT cells (Invitrogen), expression vector pFN26A (Promega)
Assay: RORγ GAL4 reporter gene assay
Format: cell-based
Details: inhibition of RORγ activity, GAL4-RORγ-LBD luciferase reporter in 293FT cells, overnight incubation; read-out: mean pIC50 (converted)
IC50 listing for selected compounds.

compound="CC(C)(C)NC(=O)c1ccc(NC(=O)Cc2ccc(S(=O)(=O)CC3CC3)cc2)cc1 [Example 11]" value_kind=IC50 result="≤ 1000 nM"
compound="Cc1ccc(N(C(=O)c2ccc(NC(=O)Cc3ccc(S(=O)(=O)CC4CC4)cc3)cc2)C(C)(C)C2CCCO2)cc1 (stereo not drawn) [Example 133]" value_kind=IC50 result="≤ 100 nM"
compound="CCN(C(=O)c1ccc(NC(=O)Cc2ccc(S(=O)(=O)CC3CC3)cc2)cc1)c1cc(C)no1 [Example 94]" value_kind=IC50 result="≤ 10 nM"
compound="CC(N(C(=O)c1ccc(NC(=O)Cc2ccc(S(=O)(=O)CC3CC3)cc2)cc1)c1ccccc1)C(F)(F)F (stereo not drawn) [Example 146]" value_kind=IC50 result="≤ 10 nM"
compound="O=C(Cc1ccc(S(=O)(=O)CC2CC2)cc1)Nc1ccc(C(=O)N2CCCCC2c2ccccc2)cc1 (stereo not drawn) [Example 49]" value_kind=IC50 result="≤ 10 nM"
compound="CC(C)CN(CC(C)C)C(=O)c1ccc(NC(=O)Cc2ccc(S(=O)(=O)NC3CC3)cc2)cc1 [Example 62]" value_kind=IC50 result="≤ 1000 nM"

Q: Given Cc1cc(NC(=O)Cc2ccc(S(=O)(=O)CC3CC3)cc2)ccc1C(=O)N(C)c1ccccc1F [Example 165] , state its recorded IC50.
A: ≤ 100 nM

Q: Given O=C(Cc1ccc(S(=O)(=O)CC2CC2)cc1)Nc1ccc(C(=O)N(c2ccccc2)C2CCC2)cc1 [Example 141] , state its recorded IC50.
A: ≤ 10 nM

###

Biological target: RORγ (Homo sapiens, UniProt P51449)
Construct: expressed in transfected cells; host or cells: 293FT cells (Invitrogen), expression vector pFN26A (Promega)
Sequence (P51449 269-508 limits assumed): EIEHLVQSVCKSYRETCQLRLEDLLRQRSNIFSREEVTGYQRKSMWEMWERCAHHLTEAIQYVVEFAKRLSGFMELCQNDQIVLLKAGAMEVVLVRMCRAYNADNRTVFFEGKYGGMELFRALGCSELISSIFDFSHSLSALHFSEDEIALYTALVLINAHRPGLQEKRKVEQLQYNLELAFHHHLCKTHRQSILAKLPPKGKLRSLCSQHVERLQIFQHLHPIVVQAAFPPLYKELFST
Test: RORγ GAL4 reporter gene assay
Format: cell-based
Conditions: inhibition of RORγ activity, GAL4-RORγ-LBD luciferase reporter in 293FT cells, overnight incubation; read-out: mean pIC50 (converted)
Method: Example inhibitors 1-166 were tested for their ability to inhibit RORγ activity in a RORγ GAL4 reporter gene assay. The assay procedure and results are described below. RORγ GAL4 Reporter Gene Assay Description A GAL4 one-hybrid reporter system employing luciferase readout was established to determine inhibition of RORγ in 293FT cells. […] For compound screening, the cells were harvested (as described above) and counted. […]
IC50 listing for selected molecules.

Known results for molecules:
compound_smiles=CCN(C(=O)c1ccc(NC(=O)Cc2ccc(S(=O)(=O)NC3CC3)cc2)cc1)c1cccnc1 result="≤ 1000 nM"
compound_smiles=O=C(Cc1ccc(S(=O)(=O)CC2CC2)cc1)Nc1ccc(C(=O)NCc2ccccc2)cc1 result="≤ 1000 nM"
compound_smiles=O=C(Cc1ccc(S(=O)(=O)CC2CC2)cc1)Nc1ccc(C(=O)N(C2CCC2)C2CCC2)cc1 result="≤ 100 nM"
compound_smiles=CCN(C(=O)c1ccc(NC(=O)Cc2ccc(S(=O)(=O)CC3CC3)cc2)cc1)c1nccs1 result="≤ 100 nM"
compound_smiles=O=C(Cc1ccc(S(=O)(=O)CC2CC2)cc1)Nc1ccc(C(=O)N2CCc3ccccc3C2)cc1 result="≤ 100 nM"

Q: Given CCN(C(=O)c1ccc(NC(=O)Cc2ccc(S(=O)(=O)CC3CC3)cc2)c(F)c1)c1ccccc1 , state its recorded IC50.
A: ≤ 10 nM

Q: Given CCN(C(=O)c1ccc(NC(=O)Cc2ccc(S(=O)(=O)CC3CC3)cc2)cc1)c1nc(C)c(C)s1 , state its recorded IC50.
A: ≤ 10 nM

Q: Given CCCN(C(=O)c1ccc(NC(=O)Cc2ccc(S(=O)(=O)CC3CC3)cc2)cc1)c1ccsc1 , state its recorded IC50.
A: ≤ 10 nM

###

Target: RORγ (Homo sapiens, UniProt P51449)
Construct: expressed in transfected cells; host or cells: 293FT cells (Invitrogen), expression vector pFN26A (Promega)
Assay: RORγ GAL4 reporter gene assay
Assay type: cell-based
Settings: inhibition of RORγ activity, GAL4-RORγ-LBD luciferase reporter in 293FT cells, overnight incubation; read-out: mean pIC50 (converted)
Protocol: Example inhibitors 1-166 were tested for their ability to inhibit RORγ activity in a RORγ GAL4 reporter gene assay. The assay procedure and results are described below. RORγ GAL4 Reporter Gene Assay Description A GAL4 one-hybrid reporter system employing luciferase readout was established to determine inhibition of RORγ in 293FT cells. […] For compound screening, the cells were harvested (as described above) and counted. […]
value kind: IC50

Q: Given CC(C)(C1CCCO1)N(C(=O)c1ccc(NC(=O)Cc2ccc(S(=O)(=O)CC3CC3)nc2)cc1)c1ccccc1 (stereo not shown) [Example 160] , state its recorded IC50.
A: ≤ 100 nM

###

Target: RORγ (Homo sapiens, UniProt P51449)
Construct: expressed in transfected cells; host or cells: 293FT cells (Invitrogen), expression vector pFN26A (Promega)
Assay: RORγ GAL4 reporter gene assay
Format: cell-based
Settings: inhibition of RORγ activity, GAL4-RORγ-LBD luciferase reporter in 293FT cells, overnight incubation; read-out: mean pIC50 (converted)
IC50 listing for selected compounds.

Known results for compounds:
compound_smiles=CCN(C(=O)c1ccc(NC(=O)Cc2ccc(S(=O)(=O)CC3CC3)cc2)c(OC)c1)c1ccccc1 test_target="RORγ (Homo sapiens, UniProt P51449)" result="≤ 1000 nM"
compound_smiles=COc1ccccc1[C@H](C)NC(=O)c1ccc(NC(=O)Cc2ccc(S(=O)(=O)CC3CC3)cc2)cc1 test_target="RORγ (Homo sapiens, UniProt P51449)" result="≤ 1000 nM"
compound_smiles=CCN(C(=O)c1ccc(NC(=O)Cc2ccc(S(=O)(=O)NC3CC3)cc2)cc1)c1nc(C)c(C)s1 test_target="RORγ (Homo sapiens, UniProt P51449)" result="≤ 100 nM"

Now consider the entry below.
Q: Given CN(C(=O)c1ccc(NC(=O)Cc2ccc(S(=O)(=O)CC3CC3)cc2)cc1Cl)c1ccccc1F , state its recorded IC50.
A: ≤ 10 nM

###

IC50 listing for selected molecules.
Biological target: RORγ (Homo sapiens, UniProt P51449)
Construct: expressed in transfected cells; host or cells: 293FT cells (Invitrogen), expression vector pFN26A (Promega)
Assay: RORγ GAL4 reporter gene assay
Format: cell-based
Details: inhibition of RORγ activity, GAL4-RORγ-LBD luciferase reporter in 293FT cells, overnight incubation; read-out: mean pIC50 (converted)

Known results for molecules:
molecule=CC(C)(CN1CCOCC1)NC(=O)c1ccc(NC(=O)Cc2ccc(S(=O)(=O)CC3CC3)cc2)cc1 result="≤ 1000 nM"
molecule=CCN(C(=O)c1ccc(NC(=O)Cc2ccc(S(=O)(=O)CC3CC3)cc2)c(C)c1)c1ccccc1 result="≤ 100 nM"

Q: Given CC1CCCCN1C(=O)c1ccc(NC(=O)Cc2ccc(S(=O)(=O)CC3CC3)cc2)cc1 (stereo not shown) , state its recorded IC50.
A: ≤ 1000 nM

Q: Given CCCNC(=O)c1ccc(NC(=O)Cc2ccc(S(=O)(=O)CC3CC3)cc2)cc1 , state its recorded IC50.
A: ≤ 1000 nM

###

IC50 listing for selected molecules.
Molecular target: RORγ (Homo sapiens, UniProt P51449)
Construct: expressed in transfected cells; host or cells: 293FT cells (Invitrogen), expression vector pFN26A (Promega)
Test: RORγ GAL4 reporter gene assay
Assay type: cell-based
Settings: inhibition of RORγ activity, GAL4-RORγ-LBD luciferase reporter in 293FT cells, overnight incubation; read-out: mean pIC50 (converted)

Known results for molecules:
molecule=CN(C(=O)c1ccc(NC(=O)Cc2ccc(S(=O)(=O)NC3CC3)cc2)cc1)c1ccccc1 value_kind=IC50 result="≤ 100 nM"
molecule=CCCN(Cc1ccccc1)C(=O)c1ccc(NC(=O)Cc2ccc(S(=O)(=O)NC3CC3)cc2)cc1 value_kind=IC50 result="≤ 1000 nM"
molecule=Cc1ccccc1N(C)C(=O)c1ccc(NC(=O)Cc2ccc(S(=O)(=O)CC3CC3)cc2)cc1F value_kind=IC50 result="≤ 100 nM"
molecule=CCN(C(=O)c1ccc(NC(=O)Cc2ccc(S(=O)(=O)NC3CC3)cc2)cc1)c1ccccc1 value_kind=IC50 result="≤ 10 nM"
molecule=CCN(C(=O)c1ccc(NC(=O)Cc2ccc(S(=O)(=O)CC3CC3)cc2)cc1F)c1ccccc1 value_kind=IC50 result="≤ 10 nM"

Q: API: value(readout= IC50, system= RORγ (Homo sapiens, UniProt P51449), query= CCCN(C(=O)c1ccc(NC(=O)Cc2ccc(S(=O)(=O)CC3CC3)cc2)cc1)c1cc(C)nn1C )
A: ≤ 10 nM

Q: API: value(readout= IC50, system= RORγ (Homo sapiens, UniProt P51449), query= CN(Cc1ccccc1)C(=O)c1ccc(NC(=O)Cc2ccc(S(=O)(=O)CC3CC3)cc2)cc1 )
A: ≤ 100 nM

Q: API: value(readout= IC50, system= RORγ (Homo sapiens, UniProt P51449), query= CCN(C(=O)c1ccc(NC(=O)Cc2ccc(S(=O)(=O)NC3CC3)cc2)cc1)c1cccc(C(=O)OC)c1 )
A: ≤ 100 nM
